// provenance: patent US20230167070A1

# tested_system: human TREX2 (residues M44-A279) (Homo sapiens, UniProt Q9BQ50)
# Construct: human TREX2 (residues M44-A279, expressed in E. coli)
# Sequence (Q9BQ50 whole entry, the tested form may be a part): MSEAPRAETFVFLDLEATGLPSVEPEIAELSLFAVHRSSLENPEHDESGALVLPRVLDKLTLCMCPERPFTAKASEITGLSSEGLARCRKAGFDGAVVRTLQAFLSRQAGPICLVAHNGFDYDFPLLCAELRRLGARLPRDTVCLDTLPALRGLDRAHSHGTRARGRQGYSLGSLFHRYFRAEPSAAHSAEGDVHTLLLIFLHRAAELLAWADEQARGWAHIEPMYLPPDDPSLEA
# assay_notes: TREX2 Biochemical Assay (fluorescence, dsDNA substrate degradation)
# recorded_conditions: 2.5 nM TREX2, 60 nM dsDNA substrate, 25 minutes at room temperature
result_type: IC50

# example entries with known answers
Exercise: Please look up its IC50: C=CCNC(=O)c1nc(N(C)C(c2ccccc2)c2ccccc2)n(C)c(=O)c1O [Example 8]
Key: 1 to 10 µM

Exercise: // next record CN(c1nc(C(=O)Nc2cncc(F)c2)c(O)c(=O)n1C)C(c1ccccc1)c1ccccc1 [Example 24]
Key: 1 to 10 µM

Exercise: // next record CN(c1nc(C(=O)Nc2cncnc2)c(O)c(=O)n1C)C(c1ccccc1)c1ccccc1 [Example 26]
Key: 1 to 10 µM

Exercise: // next record Cc1onc(NC(=O)c2nc(N(C)C(c3ccccc3)c3ccccc3)n(C)c(=O)c2O)c1C [Example 37]
Key: 10 to 100 µM

Exercise: // next record CN(c1nc(C(=O)Nc2nnco2)c(O)c(=O)n1C)C(c1ccccc1)c1ccccc1 [Example 38]
Key: 10 to 100 µM

Next:
Exercise: Please look up its IC50: CN(c1nc(C(=O)Nc2cccc(F)c2)c(O)c(=O)n1C)C(c1ccccc1)c1ccccc1 [Example 16]
Key: < 1 µM

Exercise: // next record CN(c1nc(C(=O)NC2CCC2)c(O)c(=O)n1C)C(c1ccccc1)c1ccccc1 [Example 7]
Key: 10 to 100 µM

Exercise: // next record CN(c1nc(C(=O)Nc2cccc(C(F)(F)F)c2)c(O)c(=O)n1C)C(c1ccccc1)c1ccccc1 [Example 27]
Key: 10 to 100 µM

* * *

# tested_system: human TREX2 (residues M44-A279) (Homo sapiens)
# Construct: human TREX2 (residues M44-A279, expressed in E. coli)
# assay_notes: TREX2 Biochemical Assay (fluorescence, dsDNA substrate degradation)
# recorded_conditions: 2.5 nM TREX2, 60 nM dsDNA substrate, 25 minutes at room temperature
pIC50: −log10 of the molar value.
result_type: pIC50

# example entries with known answers
Exercise: Please look up its pIC50: Cc1nocc1NC(=O)c1nc(N(C)C(c2ccccc2)c2ccccc2)n(C)c(=O)c1O
Key: 5.00 to 6.00

Exercise: // next record CN(c1nc(C(=O)Nc2ccc(F)cc2)c(O)c(=O)n1C)C(c1ccccc1)c1ccccc1
Key: > 6.00

Exercise: // next record CN(c1nc(C(=O)N[C@H]2CCOC2)c(O)c(=O)n1C)C(c1ccccc1)c1ccccc1
Key: 4.00 to 5.00

Exercise: // next record CN(c1nc(C(=O)Nc2ccc(F)c(F)c2)c(O)c(=O)n1C)C(c1ccccc1)c1ccccc1
Key: > 6.00

Next:
Exercise: Please look up its pIC50: CN(c1nc(C(=O)NC2CC=CC2)c(O)c(=O)n1C)C(c1ccccc1)c1ccccc1
Key: 4.00 to 5.00

Exercise: // next record CN(c1nc(C(=O)Nc2cncs2)c(O)c(=O)n1C)C(c1ccccc1)c1ccccc1
Key: 5.00 to 6.00

Exercise: // next record CNC(=O)c1nc(N(C)C(c2ccccc2)c2ccccc2)n(C)c(=O)c1O
Key: 4.00 to 5.00

Exercise: // next record Cc1noc(C)c1NC(=O)c1nc(N(C)C(c2ccccc2)c2ccccc2)n(C)c(=O)c1O
Key: 4.00 to 5.00

Exercise: // next record CN(c1nc(C(=O)NC2CC(F)(F)C2)c(O)c(=O)n1C)C(c1ccccc1)c1ccccc1
Key: 4.00 to 5.00

Exercise: // next record CN(c1nc(C(=O)NCC(F)(F)F)c(O)c(=O)n1C)C(c1ccccc1)c1ccccc1
Key: 4.00 to 5.00

Exercise: // next record CN(c1nc(C(=O)Nc2ccccc2F)c(O)c(=O)n1C)C(c1ccccc1)c1ccccc1
Key: > 6.00

Exercise: // next record CN(c1nc(C(=O)Nc2ccnn2C)c(O)c(=O)n1C)C(c1ccccc1)c1ccccc1
Key: 4.00 to 5.00

* * *

# tested_system: full length human TREX1 (Homo sapiens, UniProt Q9NSU2)
# Construct: N-terminally His-Tev tagged full length human TREX1
# Sequence (Q9NSU2 whole entry): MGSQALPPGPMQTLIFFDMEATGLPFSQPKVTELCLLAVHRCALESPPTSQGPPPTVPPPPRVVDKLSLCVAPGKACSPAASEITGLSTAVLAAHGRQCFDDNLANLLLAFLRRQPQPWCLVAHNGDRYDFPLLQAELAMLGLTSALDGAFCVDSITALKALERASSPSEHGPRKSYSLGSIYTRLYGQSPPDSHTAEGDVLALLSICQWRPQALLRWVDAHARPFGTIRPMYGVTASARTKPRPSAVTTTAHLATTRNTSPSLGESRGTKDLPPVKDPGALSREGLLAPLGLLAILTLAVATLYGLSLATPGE
# assay_notes: TREX1 Biochemical Assay (fluorescence, dsDNA substrate degradation)
# recorded_conditions: 150 pM TREX1, 60 nM dsDNA substrate, 25 minutes at room temperature
result_type: IC50

Exercise: What is its IC50 for full length human TREX1 (Homo sapiens, UniProt Q9NSU2)? Entry: CN(c1nc(C(=O)Nc2ccon2)c(O)c(=O)n1C)C(c1ccccc1)c1ccccc1
Key: 100 to 1000 nM

Exercise: // next record CN(c1nc(C(=O)Nc2ccc(F)cc2)c(O)c(=O)n1C)[C@@H](c1ccccc1)c1ccccc1Cl
Key: 100 to 1000 nM

Exercise: // next record CN(c1nc(C(=O)Nc2cncs2)c(O)c(=O)n1C)C(c1ccccc1)c1ccccc1
Key: 100 to 1000 nM

Exercise: // next record CN(c1nc(C(=O)Nc2ccnn2C)c(O)c(=O)n1C)C(c1ccccc1)c1ccccc1
Key: 1000 to 10000 nM

Exercise: // next record COCCNC(=O)c1nc(N(C)C(c2ccccc2)c2ccccc2)n(C)c(=O)c1O
Key: > 10000 nM

Exercise: // next record CN(c1nc(C(=O)N[C@@H]2CCOC2)c(O)c(=O)n1C)C(c1ccccc1)c1ccccc1
Key: > 10000 nM

Exercise: // next record CN(c1nc(C(=O)Nc2ccccc2)c(O)c(=O)n1C)C(c1ccccc1)c1ccccc1
Key: < 100 nM

Exercise: // next record CN(c1nc(C(=O)Nc2c(F)cccc2F)c(O)c(=O)n1C)C(c1ccccc1)c1ccccc1
Key: 1000 to 10000 nM

Exercise: // next record CN(c1nc(C(=O)NCC2CC2)c(O)c(=O)n1C)C(c1ccccc1)c1ccccc1
Key: 100 to 1000 nM

Exercise: // next record Cc1noc(C)c1NC(=O)c1nc(N(C)C(c2ccccc2)c2ccccc2)n(C)c(=O)c1O
Key: 100 to 1000 nM

Next:
Exercise: What is its IC50 for full length human TREX1 (Homo sapiens, UniProt Q9NSU2)? Entry: CN(c1nc(C(=O)Nc2ccc(F)cc2)c(O)c(=O)n1C)C(c1ccccc1)c1ccccc1
Key: 100 to 1000 nM

Exercise: // next record CN(c1nc(C(=O)NCC(F)(F)F)c(O)c(=O)n1C)C(c1ccccc1)c1ccccc1
Key: 1000 to 10000 nM

Exercise: // next record CN(c1nc(C(=O)Nc2cc(F)ccn2)c(O)c(=O)n1C)C(c1ccccc1)c1ccccc1
Key: 1000 to 10000 nM

Exercise: // next record CN(c1nc(C(=O)Nc2cccc(F)c2)c(O)c(=O)n1C)C(c1ccccc1)c1ccccc1
Key: < 100 nM

Exercise: // next record CNC(=O)c1nc(N(C)C(c2ccccc2)c2ccccc2)n(C)c(=O)c1O
Key: > 10000 nM

* * *

The following compounds are shown together with reported pIC50 values.
# tested_system: full length human TREX1 (Homo sapiens)
# Construct: N-terminally His-Tev tagged full length human TREX1; made in house; host or cells: E. coli
# assay_notes: TREX1 Biochemical Assay (fluorescence, dsDNA substrate degradation)
# recorded_conditions: 150 pM TREX1, 60 nM dsDNA substrate, 25 minutes at room temperature
pIC50: −log10 of the molar value.

# example entries with known answers
Exercise: Please look up its pIC50: CN(c1nc(C(=O)Nc2cccc(F)c2F)c(O)c(=O)n1C)C(c1ccccc1)c1ccccc1
Key: > 7.00

Exercise: // next record CN(c1nc(C(=O)Nc2ccc(F)c(F)c2)c(O)c(=O)n1C)C(c1ccccc1)c1ccccc1
Key: 6.00 to 7.00

Next:
Exercise: Please look up its pIC50: CN(c1nc(C(=O)Nc2ccccn2)c(O)c(=O)n1C)C(c1ccccc1)c1ccccc1
Key: 6.00 to 7.00

* * *

# tested_system: human TREX2 (residues M44-A279) (Homo sapiens)
# Construct: human TREX2 (residues M44-A279, expressed in E. coli)
# assay_notes: TREX2 Biochemical Assay (fluorescence, dsDNA substrate degradation)
# recorded_conditions: 2.5 nM TREX2, 60 nM dsDNA substrate, 25 minutes at room temperature
# Procedure: Degradation of the dsDNA liberates free fluorophore to produce a fluorescent signal. […] After a 5-minute incubation at room temperature, plates were read in a laser sourced Envision (Perkin-Elmer), measuring fluorescence at 615 nm following excitation w/570 nm light. […]
pIC50: −log10 of the molar value.
The following compounds are shown together with reported pIC50 values.

# example entries with known answers
Exercise: Please look up its pIC50: CN(c1nc(C(=O)Nc2ccc(C(F)(F)F)cc2)c(O)c(=O)n1C)C(c1ccccc1)c1ccccc1
Key: 4.00 to 5.00

Exercise: // next record CN(c1nc(C(=O)Nc2cc(F)ccn2)c(O)c(=O)n1C)C(c1ccccc1)c1ccccc1
Key: 5.00 to 6.00

Exercise: // next record CCNC(=O)c1nc(N(C)C(c2ccccc2)c2ccccc2)n(C)c(=O)c1O
Key: 4.00 to 5.00

Exercise: // next record CN(c1nc(C(=O)Nc2ccc(F)cc2)c(O)c(=O)n1C)[C@@H](c1ccccc1)c1ccccc1Cl
Key: > 6.00

Exercise: // next record COCCNC(=O)c1nc(N(C)C(c2ccccc2)c2ccccc2)n(C)c(=O)c1O
Key: 4.00 to 5.00

Exercise: // next record CN(c1nc(C(=O)Nc2ccccn2)c(O)c(=O)n1C)C(c1ccccc1)c1ccccc1
Key: > 6.00

Exercise: // next record Cc1oncc1NC(=O)c1nc(N(C)C(c2ccccc2)c2ccccc2)n(C)c(=O)c1O
Key: 5.00 to 6.00

Then there is this compound:
Exercise: Please look up its pIC50: CN(c1nc(C(=O)Nc2ccon2)c(O)c(=O)n1C)C(c1ccccc1)c1ccccc1
Key: 4.00 to 5.00
